Hello, the source for this data is ChEMBL document CHEMBL1123666, in case you need it.

experiment: Ratio of ED50 of NE to ED50 of CPD from PBZ-pretreated dog alpha-2 adrenoceptor
PROPERTY: Ratio
Just the number, please, no unit attached.

Known results for compounds:
{"COMPOUND": "CN(C)CC1OCc2c1ccc(O)c2O (stereo unspecified)", "Ratio": 4}
{"COMPOUND": "CNCC1CCc2c1ccc(O)c2O (stereo unspecified)", "Ratio": 29.6}
{"COMPOUND": "CNCC1OCc2c1ccc(O)c2O (stereo unspecified)", "Ratio": 1.69}

## Input Dear colleague, I am looking for the recorded Ratio of the following compound: CN(C)CC1CCc2c1ccc(O)c2O (stereo unspecified)
## Output 2.05

## Input Now the compound NCC1CCc2c1ccc(O)c2O (stereo unspecified)
## Output 3.55

## Input Now the compound NCC1OCc2c1ccc(O)c2O (stereo unspecified)
## Output 1.45
